studySystem: Botulinum neurotoxin type A (Clostridium botulinum (strain Hall / ATCC 3502 / NCTC 13319 / Type A)) (UniProt P0DPI1)
Sequence (P0DPI1 whole entry, looked up): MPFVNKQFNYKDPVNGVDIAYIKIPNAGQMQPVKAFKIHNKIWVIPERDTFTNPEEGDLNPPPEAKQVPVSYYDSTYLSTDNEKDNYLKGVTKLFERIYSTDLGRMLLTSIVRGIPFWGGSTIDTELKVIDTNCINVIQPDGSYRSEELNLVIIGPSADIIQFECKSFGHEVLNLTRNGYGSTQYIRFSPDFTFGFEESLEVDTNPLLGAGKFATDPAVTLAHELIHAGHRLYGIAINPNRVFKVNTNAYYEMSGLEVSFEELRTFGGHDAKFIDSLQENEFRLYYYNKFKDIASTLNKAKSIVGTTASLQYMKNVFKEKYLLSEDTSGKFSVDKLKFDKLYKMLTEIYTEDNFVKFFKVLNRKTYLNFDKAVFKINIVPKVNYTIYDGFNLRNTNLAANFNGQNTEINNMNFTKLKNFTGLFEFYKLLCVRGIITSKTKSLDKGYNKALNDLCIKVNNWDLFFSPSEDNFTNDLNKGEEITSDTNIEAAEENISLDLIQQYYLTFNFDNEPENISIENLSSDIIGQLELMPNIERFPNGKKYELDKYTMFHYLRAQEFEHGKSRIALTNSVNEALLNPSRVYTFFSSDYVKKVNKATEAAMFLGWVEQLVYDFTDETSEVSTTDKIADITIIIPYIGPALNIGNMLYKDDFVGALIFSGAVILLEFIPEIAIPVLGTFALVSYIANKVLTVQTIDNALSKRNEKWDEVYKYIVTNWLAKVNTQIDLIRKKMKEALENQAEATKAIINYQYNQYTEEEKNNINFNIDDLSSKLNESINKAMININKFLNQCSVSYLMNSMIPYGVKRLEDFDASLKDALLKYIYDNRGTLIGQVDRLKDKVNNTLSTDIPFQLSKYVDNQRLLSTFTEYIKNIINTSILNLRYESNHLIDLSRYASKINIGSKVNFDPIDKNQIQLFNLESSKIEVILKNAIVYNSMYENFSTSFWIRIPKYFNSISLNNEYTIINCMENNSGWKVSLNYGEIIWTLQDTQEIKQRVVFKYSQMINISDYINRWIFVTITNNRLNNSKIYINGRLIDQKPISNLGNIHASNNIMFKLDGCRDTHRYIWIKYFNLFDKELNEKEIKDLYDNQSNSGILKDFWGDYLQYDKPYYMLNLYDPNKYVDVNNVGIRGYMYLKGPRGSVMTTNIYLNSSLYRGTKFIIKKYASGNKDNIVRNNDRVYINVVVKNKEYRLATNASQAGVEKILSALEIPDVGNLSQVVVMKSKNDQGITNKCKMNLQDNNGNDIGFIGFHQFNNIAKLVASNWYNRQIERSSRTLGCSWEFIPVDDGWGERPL
method: BoNT/A light chain protease inhibitors, confirmation, biochemical, FRET, full-length substrates, powder set 1 (AID 652102)
measurementContext: BoNT/A LC protease, FRET full-length substrate cleavage
pIC50: −log10 of the molar value.
quantityKind: pIC50

>>> df
                                 testsmiles  quantitykind  observed
0  c1ccc(-c2cn3nc(-c4ccccc4)c(-c4ccccc4)nc3n2)cc1         pIC50      6.22
